Biological target: T1, hSPSB2(26–219) (human, UniProt Q99619 26-219)
T1 construct: human SPSB2 lacking the SOCS box region, residues 26-219; also called human SPSB2 SPRY domain; source: E. coli BL21(DE3)-R3-pRARE2, purified (Ni-Sepharose, size-exclusion); not shown: His6, N-terminal, kept
T1 sequence (looked up): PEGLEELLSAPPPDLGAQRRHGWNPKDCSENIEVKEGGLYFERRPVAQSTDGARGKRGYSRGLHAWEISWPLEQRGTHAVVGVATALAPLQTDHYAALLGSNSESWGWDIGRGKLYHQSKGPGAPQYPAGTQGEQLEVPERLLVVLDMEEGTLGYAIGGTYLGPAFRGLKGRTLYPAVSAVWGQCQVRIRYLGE
Test: ITC; 100 μM peptide titrated into 10 μM hSPSB protein; 20 °C; 50 mM Hepes pH 7.4, 150 mM NaCl, 1 mM DTT (hSPSB1) or 0.5 mM TCEP (hSPSB2, hSPSB4); single binding site model
Settings: both partners purified
MEASURE NAME: pKd
Scale note: pKd = -log10(concentration in M).

- BINDER: "DINNNNNIVEDVERKREFYI (DEAD-box RNA helicase VASA of Drosophila, residues 184-203; also called VASA-derived peptide; source: synthetic peptide (ThermoElectron GmbH)) [VASA(184–203)]"
  MEASURE NAME: "pKd"
  QUANTITATIVE RESULT: 6.83

Field: next binder
Request: Name the recorded pKd of the item NELNNNLPGGAPAAP (human prostate apoptosis response protein-4 (hPar-4), residues 67-81; source: synthetic peptide (ThermoElectron GmbH)) [hPar-4(67–81)] in your answer.
Result: 5.82
